The reader will find reported pKa values listed item by item below.
# Experimental details: UV-visible spectrophotometric titrations (pKa)
# Assay type: physicochemical
# Assay context: water with 0.2% (v/v) DMSO, 0.2% DMSO, 25 °C, I = 0.10 M KCl, read-out: pKa (OH), experimentally determined
Lab note: write the figure by itself, no unit.

Sample answers from the record:
Value of pKa reported for the molecule `CCOCc1cc(CN2CCCC2)c(O)c2ncccc12` is 7.89

Value of pKa reported for the molecule `Oc1c(CN2CCc3ccccc3C2)ccc2cccnc12` is 6.24

Value of pKa reported for the molecule `CCN1CCN(Cc2ccc(O)c3ncccc23)CC1` is 9.67

More entries:
Value of pKa reported for the molecule `CN1CCN(Cc2cc(Cl)c3cccnc3c2O)CC1` is 9.63

Value of pKa reported for the molecule `Oc1c(CN2CCCCC2)cc(Cl)c2cccnc12` is 5.8

Value of pKa reported for the molecule Oc1c(C(c2ccccc2)N2CCCCC2)cc(Cl)c2cccnc12 (centres unmarked) is 6.46

Value of pKa reported for the molecule Oc1c(C(c2ccccn2)N2CCOCC2)cc(Cl)c2cccnc12 (centres unmarked) is 9.42

Value of pKa reported for the molecule `Oc1c(CN2CCN(c3ccccc3)CC2)cc(Cl)c2cccnc12` is 6.21
